System: HCT116 human colorectal carcinoma cells
assayDetails: CellTiter-Glo Luminescent Cell Viability Assay
Type: cell-based
appliedConditions: HCT-116, 72 h, 3 days
pEC50: −log10 of the molar value.
reportedEndpoint: pEC50

Worked set:
1. N#Cc1c[nH]c2c(NS(=O)(=O)c3cnn(CC4(C#N)CC4)c3)ccc(Cl)c12
6.00 to 6.60
2. Cn1cc(S(=O)(=O)Nc2ccc(C(F)(F)F)c3cc[nH]c23)cn1
< 6.00
3. Cn1cc(S(=O)(=O)Nc2ccc(C(F)(F)F)c3c(Cl)c[nH]c23)cn1
< 6.00
4. CC(C)(O)Cn1ncc(S(=O)(=O)Nc2ccc(Cl)c3c(C#N)c[nH]c23)c1F
6.00 to 6.60
5. Cc1ccc(NS(=O)(=O)c2cnn(C(C)(C)CO)c2Cl)c2[nH]cc(C#N)c12
> 6.60

response.value for "N#Cc1c[nH]c2c(NS(=O)(=O)c3cnn([C@@H](CO)CF)c3)ccc(Cl)c12" (field: pEC50) = 6.00 to 6.60

pEC50 recorded for this molecule, "CC(C)(O)CCn1cc(S(=O)(=O)Nc2ccc(Cl)c3c(C#N)c[nH]c23)cn1" , is 6.00 to 6.60

Lookup result for "N#Cc1c[nH]c2c(NS(=O)(=O)c3cnn(CCCO)c3)ccc(Cl)c12" ; measured pEC50: 6.00 to 6.60

* * *

System: HCT116 human colorectal carcinoma cells
assayDetails: CellTiter-Glo Luminescent Cell Viability Assay
Assay type: cell-based
appliedConditions: HCT-116, 72 h, 3 days
pEC50: −log10 of the molar value.
reportedEndpoint: pEC50

1. Cc1ccc(NS(=O)(=O)c2cnn(C(F)F)c2)c2[nH]cc(C#N)c12
6.00 to 6.60
2. Cc1ccc(NS(=O)(=O)c2cnn(C3COC3)c2)c2[nH]cc(C#N)c12
> 6.60
3. N#Cc1c[nH]c2c(NS(=O)(=O)c3cnn(CC(F)F)c3)ccc(C(F)(F)F)c12
6.00 to 6.60
4. Cc1ccc(NS(=O)(=O)c2cnn([C@@H](C)[C@@H](C)O)c2)c2[nH]cc(C#N)c12
> 6.60
5. CC(C)(C)n1cc(S(=O)(=O)Nc2cccc3c(Cl)c[nH]c23)cn1
6.00 to 6.60
6. Cc1ccc(NS(=O)(=O)c2cnn(C)c2)c2[nH]cc(F)c12
6.00 to 6.60

Looking up "Cc1ccc(NS(=O)(=O)c2cnn(CF)c2)c2[nH]cc(C#N)c12" , I found its pEC50 recorded as > 6.60

// pEC50 value for "Cc1ccc(NS(=O)(=O)c2cnn(CC(=O)O)c2)c2[nH]cc(C#N)c12" : < 6.00

Given item "CC1(Cn2cc(S(=O)(=O)Nc3cccc4c(Cl)c[nH]c34)cn2)CSC1" , the value recorded as its pEC50 is < 6.00

What the record says about "Cc1ccc(NS(=O)(=O)c2cnn(C(C)(C)CC(C)(C)O)c2)c2[nH]cc(C#N)c12" : pEC50 is > 6.60

The reported pEC50 of the compound "N#Cc1c[nH]c2c(NS(=O)(=O)c3cnn(C(F)F)c3N)ccc(F)c12" was 6.00 to 6.60

So, "Cn1cc(S(=O)(=O)Nc2ccc(Cl)c3c(C#N)c[nH]c23)cn1" ? Its pEC50 was > 6.60

// pEC50 value for "Cn1cc(S(=O)(=O)Nc2cccc3c(C#N)c[nH]c23)cn1" : 6.00 to 6.60

Lookup result for "Cc1ccc(NS(=O)(=O)c2cnn([C@H](C)CF)c2)c2[nH]cc(C#N)c12" ; measured pEC50: > 6.60

The compound identified as CC(F)(CO)n1cc(S(=O)(=O)Nc2ccc(F)c3c(C#N)c[nH]c23)cn1 (stereo not shown) registered its pEC50 at < 6.00

Entry "Cn1cc(S(=O)(=O)Nc2cccc3c(Cl)c[nH]c23)cn1" ; pEC50 = 6.00 to 6.60

Please fill in: pEC50 reported for "Cc1ccc(NS(=O)(=O)c2cnn(CC3(C#N)CC3)c2)c2[nH]cc(C#N)c12" = 6.00 to 6.60

Consider "C[C@@H](O)[C@H](C)n1cc(S(=O)(=O)Nc2ccc(F)c3c(C#N)c[nH]c23)cn1" . Its measured pEC50 is 6.00 to 6.60

Value of measured pEC50 for the entry "Cc1ccc(NS(=O)(=O)c2cnn(CC3(CO)COC3)c2)c2[nH]cc(C#N)c12" : 6.00 to 6.60

Measured pEC50 of "N#Cc1c[nH]c2c(NS(=O)(=O)c3cnn(CCO)c3)ccc(Cl)c12" : 6.00 to 6.60

* * *

Reported pEC50 by item:
Test system: HCT116 human colorectal carcinoma cells
assayDetails: CellTiter-Glo Luminescent Cell Viability Assay
Format: cell-based
appliedConditions: HCT-116, 72 h, 3 days
pEC50: −log10 of the molar value.

# annotated cases, reported pEC50 shown
1) CC(C)(N)Cn1cc(S(=O)(=O)Nc2ccc(Cl)c3c(C#N)c[nH]c23)cn1
< 6.00
2) N#Cc1c[nH]c2c(NS(=O)(=O)c3cnn([C@@H](CO)CF)c3)ccc(F)c12
< 6.00
3) Cc1ccc(NS(=O)(=O)c2cnn(CC3(F)COC3)c2)c2[nH]cc(C#N)c12
6.00 to 6.60
4) Cc1ccc(NS(=O)(=O)c2cnn(CC(F)F)c2)c2[nH]cc(C#N)c12
> 6.60
5) CC(C)(C(N)=O)n1cc(S(=O)(=O)Nc2ccc(Cl)c3c(C#N)c[nH]c23)cn1
6.00 to 6.60
6) CC(C)(CO)n1ncc(S(=O)(=O)Nc2ccc(Cl)c3c(C#N)c[nH]c23)c1Cl
> 6.60
7) CC1(Cn2cc(S(=O)(=O)Nc3cccc4c(Cl)c[nH]c34)cn2)COC1
6.00 to 6.60

Lab note: next compound to report on.
Noted for "Cc1ccc(NS(=O)(=O)c2cnn(CC(C)(C)S(C)(=O)=O)c2)c2[nH]cc(C#N)c12" : its pEC50 reads < 6.00

* * *

studyTarget: DDB1DB/DCAF15 and RBM39 R1R2 complex (Homo sapiens, UniProt Q14498+Q66K64)
Construct: Amino acids 150 to 331 of RBM39 were cloned into pGEX4T3; GST (from vector pGEX4T3); TEV cleavage site (N); RBM39 R1R2: E. coli (pGEX4T3)
Sequence (Q66K64 whole entry, the tested form may be a part): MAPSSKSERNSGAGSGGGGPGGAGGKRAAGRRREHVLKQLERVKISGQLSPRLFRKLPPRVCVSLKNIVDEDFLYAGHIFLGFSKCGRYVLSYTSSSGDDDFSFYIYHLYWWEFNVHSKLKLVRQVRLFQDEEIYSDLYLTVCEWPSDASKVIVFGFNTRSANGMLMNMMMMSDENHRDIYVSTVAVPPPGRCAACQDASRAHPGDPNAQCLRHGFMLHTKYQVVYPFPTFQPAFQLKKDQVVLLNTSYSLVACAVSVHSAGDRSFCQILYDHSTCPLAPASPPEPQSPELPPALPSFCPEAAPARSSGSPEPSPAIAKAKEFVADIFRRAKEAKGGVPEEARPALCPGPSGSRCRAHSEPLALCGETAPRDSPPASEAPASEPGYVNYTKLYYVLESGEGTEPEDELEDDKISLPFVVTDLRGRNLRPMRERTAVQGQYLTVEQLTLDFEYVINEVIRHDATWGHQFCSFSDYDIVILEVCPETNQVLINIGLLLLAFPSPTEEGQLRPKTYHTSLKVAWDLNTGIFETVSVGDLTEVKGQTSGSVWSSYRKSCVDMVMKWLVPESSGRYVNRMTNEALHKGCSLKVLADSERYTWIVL
Sequence (Q14498 150-331): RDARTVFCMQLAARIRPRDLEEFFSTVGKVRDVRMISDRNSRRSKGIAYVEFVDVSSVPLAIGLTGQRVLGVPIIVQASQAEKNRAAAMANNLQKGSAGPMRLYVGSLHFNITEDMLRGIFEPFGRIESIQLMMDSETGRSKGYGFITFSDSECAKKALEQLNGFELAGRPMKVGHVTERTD
Sequence (Q16531 with tags, fused parts or gaps DEL396-708 partner): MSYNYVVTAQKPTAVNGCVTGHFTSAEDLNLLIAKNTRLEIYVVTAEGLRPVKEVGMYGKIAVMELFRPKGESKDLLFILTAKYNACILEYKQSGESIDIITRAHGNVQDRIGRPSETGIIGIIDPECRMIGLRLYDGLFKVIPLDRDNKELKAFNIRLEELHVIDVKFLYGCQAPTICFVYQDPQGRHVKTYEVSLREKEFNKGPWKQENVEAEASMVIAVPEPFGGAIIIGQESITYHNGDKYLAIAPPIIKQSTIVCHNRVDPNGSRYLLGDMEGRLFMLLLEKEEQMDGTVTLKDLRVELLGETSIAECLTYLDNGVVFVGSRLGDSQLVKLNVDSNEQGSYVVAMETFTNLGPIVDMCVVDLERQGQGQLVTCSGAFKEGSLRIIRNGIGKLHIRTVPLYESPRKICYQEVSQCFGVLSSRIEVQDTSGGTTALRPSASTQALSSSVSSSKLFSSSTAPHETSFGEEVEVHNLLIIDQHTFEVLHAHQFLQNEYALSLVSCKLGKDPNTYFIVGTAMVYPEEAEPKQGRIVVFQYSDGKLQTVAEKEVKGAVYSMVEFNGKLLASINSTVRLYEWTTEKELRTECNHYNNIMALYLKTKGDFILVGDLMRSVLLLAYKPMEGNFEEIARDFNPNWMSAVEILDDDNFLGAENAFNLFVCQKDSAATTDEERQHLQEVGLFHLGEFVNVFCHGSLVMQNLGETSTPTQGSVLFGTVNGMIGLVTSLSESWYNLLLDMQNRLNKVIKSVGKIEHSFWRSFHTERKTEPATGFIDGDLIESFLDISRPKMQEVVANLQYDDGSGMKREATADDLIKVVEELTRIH
assayDetails: DCAF15 RBM39 Complex Formation Assay (FRET)
appliedConditions: FRET ratio Em 665/Em 615, incubated overnight at 4° C.
Below: a set of entries, each annotated with reported IC50.

Worked examples, 3 compounds total:
1) CNC(=O)Cn1cc(S(=O)(=O)Nc2ccc(C)c3c(C#N)c[nH]c23)cn1
< 250 nM
2) Cn1cc(S(=O)(=O)Nc2ccc(C(F)(F)F)c3cc[nH]c23)cn1
250 to 1000 nM
3) N#Cc1c[nH]c2c(NS(=O)(=O)c3cnn(C45CC(C4)C5)c3)ccc(Cl)c12
< 250 nM

# IC50 (compound: "C[C@@H](CO)Cn1cc(S(=O)(=O)Nc2ccc(Cl)c3c(C#N)c[nH]c23)cn1" ) is < 250 nM

Kindly note the recorded IC50 for "Cc1nn(C)c(C)c1S(=O)(=O)Nc1cccc2c(Cl)c[nH]c12" , which is > 1000 nM

Kindly note the recorded IC50 for "CC(C)(O)Cn1cc(S(=O)(=O)Nc2ccc(Cl)c3c(C#N)c[nH]c23)cn1" , which is < 250 nM

Memo: "Cc1ccc(NS(=O)(=O)c2cnn(CC(F)(F)F)c2)c2[nH]cc(C#N)c12" , reported IC50: < 250 nM

So, "Cc1ccc(NS(=O)(=O)c2cnn(CC(=O)N(C)C)c2)c2[nH]cc(C#N)c12" ? Its IC50 was 250 to 1000 nM

The recorded IC50 for "N#Cc1c[nH]c2c(NS(=O)(=O)c3cnn(CC(F)F)c3)ccc(Cl)c12" is < 250 nM

IC50 for "Cc1ccc(NS(=O)(=O)c2cnn(C)c2)c2[nH]ccc12" is > 1000 nM

Value of IC50 reported for the compound "N#Cc1c[nH]c2c(NS(=O)(=O)c3cnn(CC4(O)CCC4)c3)ccc(Cl)c12" is < 250 nM

Entry "Cn1ncc(S(=O)(=O)Nc2ccc(Cl)c3c(C#N)c[nH]c23)c1C(F)F" ; IC50 = < 250 nM

IC50 reported for this compound "O=S1(=O)CC(n2cc(S(=O)(=O)Nc3cccc4c(Cl)c[nH]c34)cn2)C1" : > 1000 nM

Form field IC50, entry "Cc1nn(C)cc1S(=O)(=O)Nc1ccc(C)c2c(C#N)c[nH]c12" : < 250 nM

So, "N#Cc1c[nH]c2c(NS(=O)(=O)c3cnn([C@H]4CNC[C@H]4F)c3)ccc(Cl)c12" ? Its IC50 was < 250 nM

Looking up "N#CCCn1cc(S(=O)(=O)Nc2cccc3c(Cl)c[nH]c23)cn1" , I found its IC50 recorded as < 250 nM

Lab book: IC50 of "N#Cc1c[nH]c2c(NS(=O)(=O)c3cnn(CC4(CO)CC4)c3)ccc(Cl)c12" noted as < 250 nM
